assay: NCI Yeast Anticancer Drug Screen. Data for the mgt1 strain (AID 153); conditions: S. cerevisiae mgt1 mutant growth inhibition; at 100.0 µM; hits give high values
About 79,000 compounds went through this panel and 15% of them were active in at least one assay; those are over-represented in the sample as a whole.
Label scheme for growth inhibition: lower than 90% is not satisfied, 90% and above is satisfied.

Test whether the molecule COC1/C=C\C=C(/C)C(=O)NC2=CC(=O)C(=O)C(=C2O)CC(C)CC(OC)C(O)C(C)/C=C(\C)C1OC(N)=O (stereo not given) records growth inhibition of 90% or higher.
satisfied

Test whether the molecule `CO[C@@]1([C@@H](Cl)c2ccccc2)C(=O)N(C)/C(=C\c2ccccc2)C(=O)N1C` records growth inhibition of 90% or higher.
not satisfied

Test whether the molecule CC(C(=O)N1C(=O)N(C(=O)C(C)C(O)c2ccccc2)C2CCCCC21)C(O)c1ccccc1 (stereo not given) records growth inhibition of 90% or higher.
not satisfied

Test whether the molecule `CCCCCCCCCCCCCCN` records growth inhibition of 90% or higher.
satisfied

---

test: NCI Yeast Anticancer Drug Screen. Data for the rad18 strain (AID 177); conditions: S. cerevisiae rad18 mutant growth inhibition; at 11.0 µM; hits give high values
The panel holds about 79,000 compounds, 15% with a hit somewhere; the sample as a whole holds those more often.
Label scheme for growth inhibition: lower than 20% is N, 20% and above is Y.

Test whether the molecule NC(CCCCCCCCCCCCC(N)C(=O)c1ccccc1)C(=O)c1ccccc1 (stereo not given) records growth inhibition of 20% or higher.
Y

Test whether the molecule O=S(=O)(NC1CCCC(c2ccccc2)C1)c1ccccc1 (stereo not given) records growth inhibition of 20% or higher.
N

Test whether the molecule CCCC/C=C1\CCC(CN2CCCC2)C1=O (stereo not given) records growth inhibition of 20% or higher.
Y

Test whether the molecule `Cc1cc2nc3ccccc3n2c2ccccc12` records growth inhibition of 20% or higher.
N

Test whether the molecule `CC(C)OC(=O)NNc1cc(Cl)ccc1Cl` records growth inhibition of 20% or higher.
Y

---

The entries below come with measured growth inhibition values attached.
assay: NCI Yeast Anticancer Drug Screen. Data for the wt1 strain (AID 149);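 note: 0% = growth of vehicle-treated wt1 cultures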; details: S. cerevisiae wt1 strain (SPY 50644) growth inhibition; at 11.0 µM; hits give high values
This is part of a sample that, as a whole, favours compounds with a hit. Of some 79,000 tested, about 15% had one in any assay.
Write down the numeric answer in % and omit the unit.

Reported growth inhibition ( COc1ccc2c3c1OC(C)C31CC(=O)CCC1CC2 (stereo unspecified) ) = -5

Reported growth inhibition ( `CCCCCc1c(CCCC)c(=O)[nH]c2cc(CNCC(OC)OC)ccc12` ) = 20

Reported growth inhibition ( O=C(O)C1CCCCC1c1c2ccc(=O)cc-2oc2cc(O)ccc12 (stereo unspecified) ) = -21

---

experiment: NCI Yeast Anticancer Drug Screen. Data for the CLN2oe strain (AID 163);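 note: 0% = growth of vehicle-only control cultures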; conditions: S. cerevisiae CLN2oe strain, at 100.0 µM, hits give high values
Compounds without any hit were thinned out: in the full panel of roughly 79,000, 15% have a hit.
test.readout: growth inhibition (%)
Write down the numeric answer in % and omit the unit.

Example entries begin here.
{"columns": ["compound", "test.readout", "measure.unit", "readout.value"],
 "data": [
  ["CN1CCN(C(=O)c2cccc3cccc(C(=O)O)c23)CC1", "growth inhibition", "%", 97],
  ["c1cc(-c2sc(-c3ccncc3)c(-c3ccncc3)c2-c2ccncc2)ccn1", "growth inhibition", "%", 89],
  ["CC(CN(C)C)C(=O)/C=C/c1ccc(Cl)c(Cl)c1 (centres undefined)", "growth inhibition", "%", 74]
]}

Reported growth inhibition ( CCCCCCC1OCC(O)C(OCCCC)O1 (centres undefined) ) = -7

Reported growth inhibition ( `CCc1c(Cl)c(C)c(Cl)c(O)c1Cl` ) = 99

Reported growth inhibition ( O=C1NC(c2cccc(OCc3ccccc3)c2)Nc2ccccc21 (centres undefined) ) = 1

Reported growth inhibition ( `Cc1cccc2c(Cl)c3cccc(C)c3nc12` ) = -3

Reported growth inhibition ( `CC(C)(N=Nc1ccc(Cl)cc1)[N+](=O)[O-]` ) = 98

Reported growth inhibition ( `O=C(CCCN1CCC(Nc2ccc(F)cc2)(c2nnnn2C2CCCCC2)CC1)c1ccc(F)cc1` ) = 99

Reported growth inhibition ( CC12CCC(CC(=O)/C1=C(/Br)I)C2(C)C (centres undefined) ) = 6

Origin of measurements: PubChem BioAssay (NCI)
